Origin of values: ChEMBL document CHEMBL2021802

Entries and their Vd
assay: Volume of distribution at steady state in CD1 mouse at 2 mg/kg, iv and 10 mg/kg, po; type: ADME, organism-based; conditions: in vivo, read-out: Vdss
Quantity measured: Vd (L/kg)

1. CC(C)[C@]1(C)SC(N[C@H]2C[C@H]3C[C@@H]2C[C@@H]3O)=NC1=O
1.43
2. CC(C)[C@]1(C)SC(N[C@H]2C[C@@H]3CC[C@H]2C3)=NC1=O
0.9

###

assay: Drug uptake in mouse adipose tissue fat at 30 mg/kg, po after 4 hrs; format: ADME, organism-based; parameters: dose 30 mg/kg, route oral; conditions: read-out: Drug uptake
Quantity measured: concentration at 4 h (nM)

1. CC(C)[C@]1(C)SC(N[C@H]2C[C@H]3C[C@@H]2C[C@@H]3O)=NC1=O
980

###

experiment: Drug uptake in mouse adipose tissue fat at 10 mg/kg, po after 4 hrs; type: ADME, organism-based; design: dose 10 mg/kg, route oral; details: read-out: Drug uptake
Quantity measured: concentration at 4 h (nM)

1. CC(C)[C@]1(C)SC(N[C@H]2C[C@H]3C[C@@H]2C[C@@H]3O)=NC1=O
820

###

assay: Drug uptake in mouse adipose tissue fat at 10 mg/kg, po after 2 hrs; format: ADME, organism-based; design: dose 10 mg/kg, route oral; conditions: read-out: Drug uptake
Quantity measured: concentration at 2 h (nM)

1) CC(C)[C@]1(C)SC(N[C@H]2C[C@H]3C[C@@H]2C[C@@H]3O)=NC1=O
980

###

test: Clearance in CD1 mouse at 2 mg/kg, iv and 10 mg/kg, po; format: ADME, organism-based; details: in vivo
Quantity measured: clearance (mL/min/kg)

1) CC(C)[C@]1(C)SC(N[C@H]2C[C@H]3C[C@@H]2C[C@@H]3O)=NC1=O
24.7
2) CC(C)[C@]1(C)SC(N[C@H]2C[C@@H]3CC[C@H]2C3)=NC1=O
55.2

###

assay: Plasma concentration in mouse at 30 mg/kg, po after 2 hrs; format: ADME, organism-based; design: dose 30 mg/kg, route oral
Quantity measured: concentration at 2 h

1) CC(C)[C@]1(C)SC(N[C@H]2C[C@H]3C[C@@H]2C[C@@H]3O)=NC1=O
19.5 µM

###

assay: in vivo; settings: mouse, adipose tissue fat / plasma, po, 50 mg/kg
Quantity measured: Kp

1) CC(C)[C@]1(C)SC(N[C@H]2C[C@@H]3CC[C@H]2C3)=NC1=O
1.34

###

experiment: Drug uptake in mouse adipose tissue fat at 10 mg/kg, po after 6 hrs; type: ADME, organism-based; parameters: dose 10 mg/kg, route oral; settings: read-out: Drug uptake
Quantity measured: concentration at 6 h (nM)

1. CC(C)[C@]1(C)SC(N[C@H]2C[C@H]3C[C@@H]2C[C@@H]3O)=NC1=O
220

###

test: Half life in CD1 mouse at 2 mg/kg, iv and 10 mg/kg, po; type: ADME, organism-based; conditions: in vivo
Quantity measured: half-life (h)

1. CC(C)[C@]1(C)SC(N[C@H]2C[C@H]3C[C@@H]2C[C@@H]3O)=NC1=O
5.72
2. CC(C)[C@]1(C)SC(N[C@H]2C[C@@H]3CC[C@H]2C3)=NC1=O
3.32

###

test: Half life in Sprague-Dawley rat at 2 mg/kg, iv and 10 mg/kg, po; assay type: ADME, organism-based; details: in vivo
Quantity measured: half-life

1. CC(C)(O)[C@]1(C)SC(N[C@H]2C[C@@H]3CC[C@H]2C3)=NC1=O
0.24 h
2. CC(C)[C@]1(C)SC(N[C@H]2C[C@H]3C[C@@H]2C[C@H]3O)=NC1=O
2.41 h
3. CC(C)[C@]1(C)SC(N[C@H]2C[C@H]3C[C@@H]2C[C@@H]3O)=NC1=O
2.17 h
